These data points were gathered from patent US10449186B2.

Could you please report measured melting point for the items listed next?

CN(C)c1ccnc2ccc(C#Cc3c(F)cccc3F)cc12    118 to 120 °C

Return reported melting point values for all items listed beneath this line.
1. Nc1ccnc2ccc(C#Cc3c(F)cccc3F)cc12
2. Fc1cccc(F)c1C#Cc1ccc(-n2cccc2)nc1

-- reply
1. 220 to 222 °C
2. 121 to 123 °C

I would be grateful if you could provide melting point for each of the following entries.
1. Fc1cccc(F)c1C#Cc1ccnc2ccccc12
2. CN(C)c1ncc(C#Cc2c(F)cccc2F)c2ccccc12

-- reply
1: 101 to 102 °C; 2: 122 to 124 °C

----------
Please go through the items and note down their melting point.

Fc1cccc(F)c1C#Cc1ccc2nc(Cl)ccc2c1    137 to 138 °C
Fc1cccc(F)c1C#Cc1ccc2[nH]ncc2c1    193 to 195 °C
Fc1cccc(F)c1C#Cc1cnc2ccccc2c1    115 to 117 °C
Fc1cccc(F)c1C#Cc1ccc2nccc(Cl)c2c1    120 to 122 °C
Fc1cccc(F)c1C#Cc1ccc2cnccc2c1    97 to 99 °C

Provide melting point values for the following items, in order.
1. Fc1cccc(F)c1C#Cc1ccc2cn[nH]c2c1
2. CNc1ncc(C#Cc2c(F)cccc2F)c2ccccc12
3. Fc1cccc(F)c1C#Cc1cccc2cccnc12
4. Fc1cccc(F)c1C#Cc1cc2ccccc2nc1Cl
5. CNc1ccc(C#Cc2c(F)cncc2F)cc1
6. Fc1cccc(F)c1C#Cc1ccc2cccnc2c1
7. Fc1cccc(F)c1C#Cc1cccc2[nH]ncc12
8. Fc1cccc(F)c1C#Cc1ccc2ccccc2n1

-- reply
1. 192 to 194 °C
2. 118 to 120 °C
3. 108 to 110 °C
4. 137 to 138 °C
5. 149 to 151 °C
6. 123 to 125 °C
7. 178 to 179 °C
8. 127 to 129 °C

----------
Task for the reader: assign each of the following molecules its reported inhibition at 10 µM.
Test system: LS174T colon cancer cells
Assay: LS174T cell proliferation assay
Type: cell-based
Settings: Homo sapiens, LS174T; Table 2; 10 μM; read-out: inhibition of cell proliferation (%) of colon cancer LS174T cells
Give bare numbers, in %.

The cases that follow already have their inhibition at 10 µM on record.
CN(C)c1ccc(C#Cc2c(F)cccc2F)cn1 [Compound 5b]    83.6
Fc1cccc(F)c1C#Cc1ccc2c(Cl)ccnc2c1 [Compound 5bb]    70.8
Nc1ccnc2ccc(C#Cc3c(F)cccc3F)cc12 [Compound 5cc]    93.9

Batch of 3 molecules: report inhibition at 10 µM for each.
1. Fc1cccc(F)c1C#Cc1cccc2cnccc12 [Compound 5ii]
2. Fc1cccc(F)c1C#Cc1ccc2[nH]ccc2c1 [Compound 5e]
3. Nc1ccnc2cc(C#Cc3c(F)cccc3F)ccc12 [Compound 5dd]

-- reply
93.6
91.5
97.7

----------
Property label: melting point

The examples below pair each entry with its known result.
Fc1cccc(F)c1C#Cc1cccc2ncccc12    98 to 100 °C
Fc1ccc2cc(C#Cc3c(F)cccc3F)cnc2c1    142 to 143 °C
CN(C)c1cnc(C#Cc2c(F)cccc2F)cn1    137 to 138 °C

We next turn to a different compound, shown below.
-- ask Identify the reported melting point for the following entry. `Nc1ncc(C#Cc2c(F)cccc2F)c2ccccc12`
-- reply 200 to 201 °C
